Experiment: In vitro PAR transport across harvested intestinal segments, EasyMount Ussing System: colon
Format: in vitro ADME
Conditions: rat, 5 mg/ml (~25 mg) paromomycin in mucosal chamber, tissue area 0.5 sq cm
Counter-ions that a name gives are not always drawn.

molecule	Papp at […], 5 mg/ml
NC[C@@H]1O[C@H](O[C@H]2[C@@H](O)[C@H](O[C@@H]3[C@@H](O)[C@H](N)C[C@H](N)[C@H]3O[C@H]3O[C@H](CO)[C@@H](O)[C@H](O)[C@H]3N)O[C@@H]2CO)[C@H](N)[C@@H](O)[C@@H]1O [PAR, Paromomycin sulfate]	2.07 ×10⁻⁶ cm/s

---

Assay: In vitro PAR transport across harvested intestinal segments, EasyMount Ussing System: jejunum
Type: in vitro ADME
Details: rat, jejunum M-to-S; 15 mg/ml PAR; Sodium Decanoate in mucosal 0.2 mg/ml (equilibrated 20 min before drug)
Counter-ions that a name gives are not always drawn.
value_kind: Papp at 15 mg/ml (×10⁻⁶ cm/s)

compound	unit_symbol	value
NC[C@@H]1O[C@H](O[C@H]2[C@@H](O)[C@H](O[C@@H]3[C@@H](O)[C@H](N)C[C@H](N)[C@H]3O[C@H]3O[C@H](CO)[C@@H](O)[C@H](O)[C@H]3N)O[C@@H]2CO)[C@H](N)[C@@H](O)[C@@H]1O [PAR, Paromomycin sulfate]	×10⁻⁶ cm/s	1.48
